Test: Plasma and brain concentrations of drugs at the end of the audiogenic seizure experiment (LC-MS)
Assay type: in vivo, mouse
Settings: DBA/2J, mouse, plasma, oral, analyte COMPOUND 1; COMPOUND 1 30 mg/kg 3 h + VPA 200 mg/kg 1 h before stimulus, oral gavage; mean ± SEM; read-out: Plasma concentration total
quantity.kind: concentration at 3 h (ng/mL)
Write down the numeric answer in ng/mL and omit the unit.

# concentration at 3 h lookup, item N#Cc1ccc(Cn2ccc(NC(=O)Cc3ccc(C4(C(F)(F)F)CC4)cc3)n2)nc1 [COMPOUND 1]
2110

---

Assay: Plasma and brain concentrations of drugs at the end of the audiogenic seizure experiment (LC-MS)
Format: in vivo, mouse
Details: DBA/2J, mouse, plasma, po, 10 mg/kg, analyte COMPOUND 1; COMPOUND 1 10 mg/kg 3 h + vehicle 1 h before stimulus, oral gavage; mean ± SEM; read-out: Plasma concentration total
quantity.kind: concentration at 3 h (ng/mL)
Write down the numeric answer in ng/mL and omit the unit.

# concentration at 3 h lookup, item N#Cc1ccc(Cn2ccc(NC(=O)Cc3ccc(C4(C(F)(F)F)CC4)cc3)n2)nc1
2120

---

Assay: Plasma and brain concentrations of drugs at the end of the audiogenic seizure experiment (LC-MS)
Assay type: in vivo, mouse
Details: DBA/2J, mouse, brain, oral, analyte VPA; COMPOUND 1 30 mg/kg 3 h + VPA 200 mg/kg 1 h before stimulus, oral gavage; mean ± SEM; read-out: Brain concentration total
quantity.kind: concentration at 1 h (ng/g)
Write down the numeric answer in ng/g and omit the unit.

# concentration at 1 h lookup, item CCCC(CCC)C(=O)O
27000

---

Assay: Plasma and brain concentrations of drugs at the end of the audiogenic seizure experiment (LC-MS)
Format: in vivo, mouse
Settings: DBA/2J, mouse, plasma, oral, analyte COMPOUND 1; COMPOUND 1 30 mg/kg 3 h + LTG 3 mg/kg 1 h before stimulus, oral gavage; mean ± SEM; read-out: Plasma concentration total
Protocol: Briefly, blood was sampled from the vena cava caudalis with a syringe pre-filled with EDTA (ethylenediamine tetraacetic acid) as anticoagulant and centrifuged to yield plasma (for 10 minutes, at 4° C. and 5000 rpm (rounds per minute)). Brain was sampled and homogenized into one volume of cold phosphate buffer (pH 7.4). Following extraction with methanol, concentrations of the compound in plasma and brain were determined using liquid chromatography coupled to mass spectrometry. […]
quantity.kind: concentration at 3 h (ng/mL)
Write down the numeric answer in ng/mL and omit the unit.

# concentration at 3 h lookup, item N#Cc1ccc(Cn2ccc(NC(=O)Cc3ccc(C4(C(F)(F)F)CC4)cc3)n2)nc1
4550

---

Experiment: Plasma and brain concentrations of drugs at the end of the audiogenic seizure experiment (LC-MS)
Type: in vivo, mouse
Settings: DBA/2J, mouse, plasma, oral, analyte LEV; COMPOUND 1 30 mg/kg 3 h + LEV 50 mg/kg 1 h before stimulus, oral gavage; mean ± SEM; read-out: Plasma concentration total
quantity.kind: concentration at 1 h (ng/mL)
Write down the numeric answer in ng/mL and omit the unit.

# concentration at 1 h lookup, item CC[C@@H](C(N)=O)N1CCCC1=O [LEV, (S)-2-(2-oxopyrrolidin-1-yl)butanamide]
26200

---

Experiment: Plasma and brain concentrations of drugs at the end of the audiogenic seizure experiment (LC-MS)
Assay type: in vivo, mouse
Conditions: DBA/2J, mouse, plasma, oral, 10 mg/kg, analyte LTG; vehicle 3 h + LTG 10 mg/kg 1 h before stimulus, oral gavage; mean ± SEM; read-out: Plasma concentration total
quantity.kind: concentration at 1 h (ng/mL)
Write down the numeric answer in ng/mL and omit the unit.

# concentration at 1 h lookup, item Nc1nnc(-c2cccc(Cl)c2Cl)c(N)n1
930
